# Tested on: Fibroblast
# ASSAY INFO: Incucyte cell viability with human fibroblast; also: unitless GR value; below 1 slowed growth and below 0 cell loss
# Type: toxicity, cell-based
# RUN CONDITIONS: 0 h, 10 µM, compound concentration 10 uM, replicate number 2
Please mark satisfied if the recorded Growth Rate is equal to or greater than -0.4, and not satisfied if it falls below.

input: Please check the record CCCc1c(OCCCOc2ccc(OCC(=O)O)cc2)ccc(C(C)=O)c1O and state if its Growth Rate is at or above -0.4.
output: satisfied

input: Reported Growth Rate reaches at least -0.4 for Cc1cccc(-c2[nH]c(CNc3ccccc3F)nc2-c2ccc3ncnn3c2)n1 ?
output: satisfied

input: State whether the measured Growth Rate reaches -0.4, counting equality as reaching it, for COc1cc(-c2cc([C@H](O)C3CC3)n3ncnc(N)c23)ccc1CO
output: satisfied

input: Assess whether reported Growth Rate for COc1cc(N2CCN(C)CC2)ccc1Nc1nccc(-c2cn(C)c3cnccc23)n1 sits at -0.4 or higher.
output: satisfied

input: Dear colleague, could you confirm whether CS(=O)(=O)NC(=O)CCC/C=C\C[C@H]1C(=O)C[C@@H](O)[C@@H]1/C=C/[C@@H](O)COc1ccccc1 has Growth Rate at or above -0.4?
output: not satisfied

input: Growth Rate >= -0.4 for CN(C)[C@H]1CCc2nc(NC(=O)c3cccc(Cn4cc(-c5ccc(C#N)cc5)cn4)c3)sc2C1.O=C(O)C(F)(F)F ?
output: not satisfied

input: Quick check, Growth Rate >= -0.4? CC1CCN(c2ccnc(NCc3cn(C)cn3)n2)CC1
output: not satisfied

input: Hello, I need to know if Cc1cc(O)c(-c2ccc([C@@H](C)CN(C)C)cc2)c2c1[nH]c(=O)c1sccc12 has measured Growth Rate not below -0.4. Thanks!
output: satisfied

input: Can CC[C@H](NC(=O)[C@H](C)NC)C(=O)N1C[C@@H](O)C[C@H]1Cc1c(-c2[nH]c3cc(F)ccc3c2C[C@@H]2C[C@H](O)CN2C(=O)[C@H](CC)NC(=O)[C@H](C)NC)[nH]c2cc(F)ccc12 be said to have Growth Rate at or above -0.4?
output: not satisfied

input: Please tell me: is the compound Cc1cc(Nc2cc(N)ncn2)c(=O)n2c1C(=O)NC21CCCCC1 at or over -0.4 in terms of Growth Rate?
output: not satisfied

input: Entry CCCCNc1ncc2c(-c3ccc(CN4CCN(C)CC4)cc3)cn([C@H]3CC[C@H](O)CC3)c2n1 : is its Growth Rate no less than -0.4?
output: not satisfied

input: // inclusive: Growth Rate at least -0.4? input: O=C(Nc1cc(C(F)(F)F)ccc1N1CCCCC1)c1ccncc1
output: not satisfied

input: Tell me whether Growth Rate is at least -0.4 here: O=C(O)c1ccc(-c2c[nH]c3ncc(-c4ccccc4)cc23)cc1C1CCCC1
output: not satisfied

input: # check: Growth Rate of CCO[C@H](COc1ccc(C(F)(F)F)cc1)CSc1ccc(OCC(=O)[O-])c(C)c1.[Na+] is greater than or equal to -0.4
output: satisfied

input: Test whether the compound CN1CCN(c2nc(C3=C(c4c[nH]c5ccccc45)C(=O)NC3=O)c3ccccc3n2)CC1 records Growth Rate of -0.4 or higher.
output: not satisfied

input: Check the entry NCc1ccc(OCCCc2sc(-c3ccc4c(c3)/C(=N/Nc3nc5ccccc5s3)CCC4)nc2C(=O)O)cc1 : does Growth Rate equal or exceed -0.4?
output: not satisfied

input: Is Growth Rate at least -0.4? Consider Cn1nc(C(=O)NCc2ccc(C(=O)O)cc2)cc1-c1ccc2[nH]ccc2c1
output: not satisfied

input: I'd appreciate it if you could say whether O=C(NCc1ccc(F)cc1)C1CCN(S(=O)(=O)c2cc(Cl)cc(Cl)c2)CC1 has Growth Rate at least equal to -0.4.
output: satisfied

input: Please check the record Cn1cc(-c2ccc(N(C(=O)NCc3ccccc3)[C@H]3CC[C@H](Nc4ccc(C#N)cn4)CC3)cc2)ccc1=O and state if its Growth Rate is at or above -0.4.
output: not satisfied

input: Is it the case that Cc1csc(-c2nnc(Nc3ccc(Oc4ncccc4-c4ccnc(N)n4)cc3)c3ccccc23)c1 has Growth Rate reaching or exceeding -0.4?
output: not satisfied

input: Decide: is the reported value of Growth Rate for Cc1nc2c(cc1F)c(-c1nnc3c(n1)NC(=O)C3(C)C)nn2Cc1cccc(F)c1F equal to or greater than -0.4?
output: satisfied

input: Could you please find out whether Cc1cccc(-c2nn3c(c2-c2ccnc4ccc(C(N)=O)cc24)CCC3)n1 has Growth Rate that meets -0.4 or exceeds it?
output: not satisfied

input: Decide: is the reported value of Growth Rate for O=C(NCCN1CCOCC1)c1ccc2nn(CCOc3ccc(Cl)cc3)cc2c1 equal to or greater than -0.4?
output: not satisfied

input: Reported Growth Rate at or above -0.4? CNC(=O)COc1cc2cc(Nc3nc(N4C[C@H](C)C[C@H](C)C4)ncc3Cl)ccc2n(C)c1=O
output: not satisfied

input: For this compound, is measured Growth Rate -0.4 or higher? CCOC(=O)C1=C(C)NC(C)=C(C(=O)OC)C1c1cccc([N+](=O)[O-])c1 (configuration not stated)
output: not satisfied

input: Would you say Cc1cc(NC(=O)c2cccc(NC(=O)/C=C/CN(C)C)c2)ccc1Nc1nccc(-c2cccnc2)n1 shows Growth Rate at minimum -0.4?
output: satisfied
